# %Inh values compiled below
Tested on: NIM1
Construct: gene MGC42105
stated_conditions: concentration: 1 μM, replicates: in singlicate; n = 1;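 further: KINOMEscan kinase panel screen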
property: %Inh

>>> result("Cl.Cl.NCC(NC(=O)c1cc(-c2cccnc2)c(-c2ccnc3[nH]ccc23)s1)c1ccccc1 (centres unmarked) [GSK1323434]")
"36%"
>>> result("Fc1cc(Cl)ccc1Nc1ccnc2cc(-c3ccc(CN4CCOCC4)o3)ccc12 [GW560109]")
"15%"
>>> result("COc1cc(Nc2nccc(N3CCC(NS(=O)(=O)c4ccc(NC(C)=O)cc4)CC3)n2)cc(OC)c1OC [GSK1379825]")
"16%"
>>> result("CC(C)c1nc(-c2cccc(NS(=O)(=O)c3c(F)cccc3F)c2)c(-c2ccnc(Nc3ccc(N4CCOCC4)nc3)n2)s1.Cl [GSK1723980]")
"0%"
>>> result("Cc1ccc(-c2ccc3occ(-c4ccc(S(C)=O)cc4)c3c2)nn1 (centres unmarked)")
"0%"
>>> result("COc1cccc(C2=C(Nc3cccc(O)c3)C(=O)NC2=O)c1 [SB-390771]")
"16%"
>>> result("O=C(Nc1c(F)cccc1F)c1cc(C(=O)c2ccccc2F)c[nH]1 [GSK1326180]")
"0%"
>>> result("Cc1nn2c(=O)cc(N3CCO[C@H](C)C3)nc2n1Cc1cccc(Cl)c1Cl [GSK2373693]")
"11%"
>>> result("Cc1cccc(Nc2nc(NCCN)ncc2C(N)=O)c1 [GSK1292139]")
"29%"
>>> result("Cc1ccc(Nc2ccnc(Nc3ccc(C)c(F)c3)n2)cc1O.Cl [GW582868]")
"3%"
>>> result("CS(=O)(=O)c1cccc(CNc2nc(Nc3ccc4c(c3)CCC(=O)N4)ncc2C(F)(F)F)c1")
"5%"
>>> result("Nc1ncc(-c2ccc3nccc(-c4ccncc4)c3c2)cc1S(=O)(=O)N1CCCCC1 [GSK1693850]")
"0%"
>>> result("CNc1nccc(-c2ccc3c(N)n[nH]c3c2)n1 [GSK2206003]")
"15%"
>>> result("COC(=O)Nc1nc2ccc(Oc3ccc(NC(=O)Nc4cc(C(F)(F)F)ccc4F)cc3)cc2[nH]1.Cl [GW654607]")
"0%"

----------
System: CDK4
stated_conditions: concentration: 1 μM, replicates: in singlicate; n = 1
Sorting guide: entries reporting %Inh beneath 20% go in the t pile, the rest go in the f pile.

>>> classification("CN(C)c1ncnc2nc[nH]c12")
"f"
>>> classification("CSc1ccc(NC2=C(c3ccc(Cl)cc3)C(=O)NC2=O)cc1")
"t"
>>> classification("Cc1ccc(Nc2ccnc(Nc3ccc(C)c(F)c3)n2)cc1O.Cl")
"t"
>>> classification("CN(C)CCOc1ccc(-c2cc(-c3ccc(Cl)c(O)c3)c(-c3ccncc3)[nH]2)cc1.Cl.Cl")
"f"
>>> classification("CC(C)c1nc(-c2cccc(NS(=O)(=O)c3c(F)cccc3F)c2)c(-c2ccnc(Nc3ccc(N4CCOCC4)nc3)n2)s1.Cl")
"f"

----------
Tested on: STK16
stated_conditions: concentration: 1 μM, replicates: in singlicate; n = 1
The compounds listed here are annotated with their %Inh.
property: %Inh (%)

>>> numeric_readout("CCNc1nccc(-c2c(-c3ccc(F)cc3)ncn2C2CCN(C)CC2)n1")
31
>>> numeric_readout("Cc1cccc(Nc2nc(N[C@H]3CCCC[C@H]3N)ncc2C(N)=O)c1.Cl")
24
>>> numeric_readout("Cn1cc(-c2ccc3c(c2)CCN3C(=O)Cc2cc(F)cc(C(F)(F)F)c2)c2c(N)ncnc21")
20
>>> numeric_readout("COc1cc(Nc2nccc(N3CCC(NS(=O)(=O)c4ccc(NC(C)=O)cc4)CC3)n2)cc(OC)c1OC")
94.8
